# Experimental conditions: in acetone, 304.65 K
Quantity name: solubility (mole fraction)

>>> measurement("C[C@@H]1CC[C@@]2(OC1)O[C@H]1C[C@H]3[C@@H]4CC=C5C[C@@H](O)CC[C@]5(C)[C@H]4CC[C@]3(C)[C@H]1[C@@H]2C")
0.00127

---

# Experimental conditions: in ethanol, 303.15 K
Quantity name: solubility (mole fraction)

>>> measurement("C[C@@H]1CC[C@@]2(OC1)O[C@H]1C[C@H]3[C@@H]4CC=C5C[C@@H](O)CC[C@]5(C)[C@H]4CC[C@]3(C)[C@H]1[C@@H]2C")
0.00144

---

# Experimental conditions: in isopropanol, 308.65 K
Quantity name: solubility (mole fraction)

>>> measurement("C[C@@H]1CC[C@@]2(OC1)O[C@H]1C[C@H]3[C@@H]4CC=C5C[C@@H](O)CC[C@]5(C)[C@H]4CC[C@]3(C)[C@H]1[C@@H]2C")
0.00157

---

# Experimental conditions: in n-propyl acetate, 329.15 K
Quantity name: solubility (mole fraction)

>>> measurement("C[C@@H]1CC[C@@]2(OC1)O[C@H]1C[C@H]3[C@@H]4CC=C5C[C@@H](O)CC[C@]5(C)[C@H]4CC[C@]3(C)[C@H]1[C@@H]2C")
0.00612

---

# Experimental conditions: in methanol, 312.65 K
Quantity name: solubility (mole fraction)

>>> measurement("C[C@@H]1CC[C@@]2(OC1)O[C@H]1C[C@H]3[C@@H]4CC=C5C[C@@H](O)CC[C@]5(C)[C@H]4CC[C@]3(C)[C@H]1[C@@H]2C")
0.000469

---

# Experimental conditions: in n-propyl acetate, 328.65 K
Quantity name: solubility (mole fraction)

>>> measurement("C[C@@H]1CC[C@@]2(OC1)O[C@H]1C[C@H]3[C@@H]4CC=C5C[C@@H](O)CC[C@]5(C)[C@H]4CC[C@]3(C)[C@H]1[C@@H]2C")
0.00616

---

# Experimental conditions: in n-propyl acetate, 317.65 K
Quantity name: solubility (mole fraction)

>>> measurement("C[C@@H]1CC[C@@]2(OC1)O[C@H]1C[C@H]3[C@@H]4CC=C5C[C@@H](O)CC[C@]5(C)[C@H]4CC[C@]3(C)[C@H]1[C@@H]2C")
0.00442

---

# Experimental conditions: in n-propyl acetate, 319.65 K
Quantity name: solubility (mole fraction)

>>> measurement("C[C@@H]1CC[C@@]2(OC1)O[C@H]1C[C@H]3[C@@H]4CC=C5C[C@@H](O)CC[C@]5(C)[C@H]4CC[C@]3(C)[C@H]1[C@@H]2C")
0.0047

---

# Experimental conditions: in ethanol, 320.65 K
Quantity name: solubility (mole fraction)

>>> measurement("C[C@@H]1CC[C@@]2(OC1)O[C@H]1C[C@H]3[C@@H]4CC=C5C[C@@H](O)CC[C@]5(C)[C@H]4CC[C@]3(C)[C@H]1[C@@H]2C")
0.00208

---

# Experimental conditions: in methanol, 322.15 K
Quantity name: solubility (mole fraction)

>>> measurement("C[C@@H]1CC[C@@]2(OC1)O[C@H]1C[C@H]3[C@@H]4CC=C5C[C@@H](O)CC[C@]5(C)[C@H]4CC[C@]3(C)[C@H]1[C@@H]2C")
0.000643

---

# Experimental conditions: in isopropanol, 326.15 K
Quantity name: solubility (mole fraction)

>>> measurement("C[C@@H]1CC[C@@]2(OC1)O[C@H]1C[C@H]3[C@@H]4CC=C5C[C@@H](O)CC[C@]5(C)[C@H]4CC[C@]3(C)[C@H]1[C@@H]2C")
0.00241

---

# Experimental conditions: in ethanol, 313.65 K
Quantity name: solubility (mole fraction)

>>> measurement("C[C@@H]1CC[C@@]2(OC1)O[C@H]1C[C@H]3[C@@H]4CC=C5C[C@@H](O)CC[C@]5(C)[C@H]4CC[C@]3(C)[C@H]1[C@@H]2C")
0.00175

---

# Experimental conditions: in ethyl acetate, 320.15 K
Quantity name: solubility (mole fraction)

>>> measurement("C[C@@H]1CC[C@@]2(OC1)O[C@H]1C[C@H]3[C@@H]4CC=C5C[C@@H](O)CC[C@]5(C)[C@H]4CC[C@]3(C)[C@H]1[C@@H]2C")
0.00523

---

# Experimental conditions: in n-propyl acetate, 323.65 K
Quantity name: solubility (mole fraction)

>>> measurement("C[C@@H]1CC[C@@]2(OC1)O[C@H]1C[C@H]3[C@@H]4CC=C5C[C@@H](O)CC[C@]5(C)[C@H]4CC[C@]3(C)[C@H]1[C@@H]2C")
0.0053

---

# Experimental conditions: in ethanol, 319.15 K
Quantity name: solubility (mole fraction)

>>> measurement("C[C@@H]1CC[C@@]2(OC1)O[C@H]1C[C@H]3[C@@H]4CC=C5C[C@@H](O)CC[C@]5(C)[C@H]4CC[C@]3(C)[C@H]1[C@@H]2C")
0.002

---

# Experimental conditions: in n-propyl acetate, 325.15 K
Quantity name: solubility (mole fraction)

>>> measurement("C[C@@H]1CC[C@@]2(OC1)O[C@H]1C[C@H]3[C@@H]4CC=C5C[C@@H](O)CC[C@]5(C)[C@H]4CC[C@]3(C)[C@H]1[C@@H]2C")
0.00543

---

# Experimental conditions: in acetone, 302.15 K
Quantity name: solubility (mole fraction)

>>> measurement("C[C@@H]1CC[C@@]2(OC1)O[C@H]1C[C@H]3[C@@H]4CC=C5C[C@@H](O)CC[C@]5(C)[C@H]4CC[C@]3(C)[C@H]1[C@@H]2C")
0.00115

---

# Experimental conditions: in n-propyl acetate, 306.65 K
Quantity name: solubility (mole fraction)

>>> measurement("C[C@@H]1CC[C@@]2(OC1)O[C@H]1C[C@H]3[C@@H]4CC=C5C[C@@H](O)CC[C@]5(C)[C@H]4CC[C@]3(C)[C@H]1[C@@H]2C")
0.00313

---

# Experimental conditions: in n-propyl acetate, 307.15 K
Quantity name: solubility (mole fraction)

>>> measurement("C[C@@H]1CC[C@@]2(OC1)O[C@H]1C[C@H]3[C@@H]4CC=C5C[C@@H](O)CC[C@]5(C)[C@H]4CC[C@]3(C)[C@H]1[C@@H]2C")
0.00321

---

# Experimental conditions: in methanol, 315.15 K
Quantity name: solubility (mole fraction)

>>> measurement("C[C@@H]1CC[C@@]2(OC1)O[C@H]1C[C@H]3[C@@H]4CC=C5C[C@@H](O)CC[C@]5(C)[C@H]4CC[C@]3(C)[C@H]1[C@@H]2C")
0.00051

---

# Experimental conditions: in methanol, 328.15 K
Quantity name: solubility (mole fraction)

>>> measurement("C[C@@H]1CC[C@@]2(OC1)O[C@H]1C[C@H]3[C@@H]4CC=C5C[C@@H](O)CC[C@]5(C)[C@H]4CC[C@]3(C)[C@H]1[C@@H]2C")
0.000847

---

# Experimental conditions: in acetone, 308.15 K
Quantity name: solubility (mole fraction)

>>> measurement("C[C@@H]1CC[C@@]2(OC1)O[C@H]1C[C@H]3[C@@H]4CC=C5C[C@@H](O)CC[C@]5(C)[C@H]4CC[C@]3(C)[C@H]1[C@@H]2C")
0.0014

---

# Experimental conditions: in ethanol, 330.65 K
Quantity name: solubility (mole fraction)

>>> measurement("C[C@@H]1CC[C@@]2(OC1)O[C@H]1C[C@H]3[C@@H]4CC=C5C[C@@H](O)CC[C@]5(C)[C@H]4CC[C@]3(C)[C@H]1[C@@H]2C")
0.00268

---

# Experimental conditions: in ethanol, 324.15 K
Quantity name: solubility (mole fraction)

>>> measurement("C[C@@H]1CC[C@@]2(OC1)O[C@H]1C[C@H]3[C@@H]4CC=C5C[C@@H](O)CC[C@]5(C)[C@H]4CC[C@]3(C)[C@H]1[C@@H]2C")
0.00224

---

# Experimental conditions: in ethyl acetate, 318.15 K
Quantity name: solubility (mole fraction)

>>> measurement("C[C@@H]1CC[C@@]2(OC1)O[C@H]1C[C@H]3[C@@H]4CC=C5C[C@@H](O)CC[C@]5(C)[C@H]4CC[C@]3(C)[C@H]1[C@@H]2C")
0.00492

---

# Experimental conditions: in isopropanol, 330.15 K
Quantity name: solubility (mole fraction)

>>> measurement("C[C@@H]1CC[C@@]2(OC1)O[C@H]1C[C@H]3[C@@H]4CC=C5C[C@@H](O)CC[C@]5(C)[C@H]4CC[C@]3(C)[C@H]1[C@@H]2C")
0.00267

---

# Experimental conditions: in ethyl acetate, 315.65 K
Quantity name: solubility (mole fraction)

>>> measurement("C[C@@H]1CC[C@@]2(OC1)O[C@H]1C[C@H]3[C@@H]4CC=C5C[C@@H](O)CC[C@]5(C)[C@H]4CC[C@]3(C)[C@H]1[C@@H]2C")
0.00447

---

# Experimental conditions: in isopropanol, 314.65 K
Quantity name: solubility (mole fraction)

>>> measurement("C[C@@H]1CC[C@@]2(OC1)O[C@H]1C[C@H]3[C@@H]4CC=C5C[C@@H](O)CC[C@]5(C)[C@H]4CC[C@]3(C)[C@H]1[C@@H]2C")
0.00178
